Reference source for all entries: the supplement of paper PMC6555819

Test system: PPARg DBDmut IVT, anti-PPARg (DBD mutation: PPARg1 K132A/R137A, NR concentration 270 nM)
protocol: PBM binding z-score (relative to random genomic background probes); higher = stronger binding; sequences stand for … in GC…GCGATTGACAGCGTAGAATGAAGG
Would you please tag the item 1.0 when its PBM binding z-score is -0.1 or above, and 0.0 when it is below?

# biopolymer sequence, class name
records = [
    ("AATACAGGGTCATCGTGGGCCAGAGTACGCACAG", 1.0),
    ("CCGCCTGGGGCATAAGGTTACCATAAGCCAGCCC", 0.0),
    ("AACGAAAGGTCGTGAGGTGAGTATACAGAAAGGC", 1.0),
    ("AGAATGCGGTTACCAAAGATCAGGGAAACGCTTG", 0.0),
    ("TCATATAGGTAAAGGAGAAAGTCGAACGATATGA", 1.0),
    ("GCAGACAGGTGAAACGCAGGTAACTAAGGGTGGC", 0.0),
    ("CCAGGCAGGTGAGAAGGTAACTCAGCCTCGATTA", 0.0),
    ("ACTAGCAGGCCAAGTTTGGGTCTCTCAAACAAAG", 0.0),
    ("CGTCCAAGGTCATAGGAGGTGAGTGAAGACAGAT", 1.0),
    ("TCTTGTAGATCAGCAGGCTAAGAAAGCTGGCCAA", 0.0),
    ("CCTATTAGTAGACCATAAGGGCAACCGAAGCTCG", 1.0),
    ("TCATATAGGTAAACAGGAGAAAGTCCGTAAGTTA", 1.0),
    ("ACTATTAGTTGAGACCAGGGCAACCGATAGGTTG", 1.0),
    ("ATATGTAGGTTAGCTGGGGTGATTCAGACTAGGC", 1.0),
    ("CCTAGTTGGTCAAGGTCAAACACGCTATAGGTAC", 1.0),
    ("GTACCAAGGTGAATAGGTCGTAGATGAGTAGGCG", 0.0),
    ("GTACCAAGGTGAATAGGTCGTTGGTGAGTAGGCG", 0.0),
    ("ACTTACGGGTCAACGAGGTTATATCACGCGTATA", 1.0),
    ("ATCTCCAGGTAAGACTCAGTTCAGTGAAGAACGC", 1.0),
    ("AGAATGAGGTTATTAAGACCAGGGAATTGCGGTC", 1.0),
    ("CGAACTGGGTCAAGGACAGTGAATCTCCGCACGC", 1.0),
    ("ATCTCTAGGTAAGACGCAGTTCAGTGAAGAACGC", 1.0),
    ("TCTCGGAGGACACGATAGGTCAGAGCTCGACATC", 0.0),
    ("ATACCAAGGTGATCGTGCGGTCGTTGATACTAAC", 0.0),
    ("ATCTCTAGGTAACAAGTTCATTGAAAGAGAGGAC", 1.0),
]

----------
Test system: RXRa DBDmut IVT, anti-RXR (DBD mutation: RXRa K156A/R161A, NR concentration 90 nM)
protocol: PBM binding z-score (relative to random genomic background probes); higher = stronger binding; sequences stand for … in GC…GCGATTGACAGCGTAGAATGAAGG
readout type: PBM binding z-score

# biopolymer sequence, observed result
measured = [
    ("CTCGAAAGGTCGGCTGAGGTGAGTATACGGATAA", 0.843),
    ("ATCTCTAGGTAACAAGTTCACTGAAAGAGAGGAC", 1.69),
    ("CCTCGGAGGACAACAGGAGCTCAGAGCTGCCAGA", 0.0828),
    ("ACAGAGAGGTGAGTGAAGGTAACTCAGCTGGACG", -0.227),
    ("TCTGCTAGGGCAACGATGGTCAGCTAATCTGCTA", -0.149),
    ("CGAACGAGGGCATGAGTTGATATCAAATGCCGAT", 2.39),
]

----------
Tested on: RARb:RXRa (NR concentration 270 nM, RXRa partner concentration 90 nM)
protocol: PBM binding z-score (relative to random genomic background probes); higher = stronger binding; sequences stand for … in GC…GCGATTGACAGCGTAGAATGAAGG
The threshold is inclusive: PBM binding z-score of exactly 1 counts as 1; values below receive 0.

# biopolymer sequence, class name
data = [
    ("AATACAGGGTCAGCGTAGGCCAGAGTACGCACAG", 1),
    ("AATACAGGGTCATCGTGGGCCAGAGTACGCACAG", 1),
    ("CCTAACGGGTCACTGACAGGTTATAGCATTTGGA", 1),
    ("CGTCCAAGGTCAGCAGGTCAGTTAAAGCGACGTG", 1),
    ("TCTAGCAGGCCAGAGGGTCACTCATGAGGTACGG", 1),
    ("TCTTGTAGATCAAGTAGGTTAAGAAAGCCTGAGT", 0),
    ("ATCTCTAGGAAAGACTCAGTTCAGTGAAGAACGC", 0),
    ("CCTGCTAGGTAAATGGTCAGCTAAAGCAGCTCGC", 0),
    ("ACAGACAGGTGATGAAGGTAACTCAAGCTATCAT", 0),
    ("CGAACTAGGTCATTGACAGGACAGTGACTAGTAA", 1),
    ("ACTATTAGTTGATTTAGGGCAACCGATACGACGC", 0),
    ("ACTTACGGGTCAACGCGGTTATAGCACGCGTATA", 1),
    ("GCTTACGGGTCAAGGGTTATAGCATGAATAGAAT", 1),
    ("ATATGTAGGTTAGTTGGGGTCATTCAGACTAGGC", 1),
    ("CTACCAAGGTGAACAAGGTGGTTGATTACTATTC", 1),
    ("ATCTCTAGGTAACCAAGTTTAGTGAATGCCGAAC", 0),
    ("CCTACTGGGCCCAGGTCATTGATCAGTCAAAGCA", 1),
    ("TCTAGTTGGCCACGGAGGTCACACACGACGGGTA", 1),
    ("CGTCCAAGGGCAAGGTCAGTGAAAGAGACTCGAA", 1),
    ("GCTATTAGTTAAAAGGGCAACCGAATGATTCTCG", 1),
    ("CTCGAAGGGTCGGTTGAGGTGAGTATACGGATAA", 1),
    ("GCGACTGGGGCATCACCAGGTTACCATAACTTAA", 0),
    ("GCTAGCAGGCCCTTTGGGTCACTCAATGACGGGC", 0),
    ("ATCTCTAGGTAAAGATAGTTCCGTGAATGCAAAT", 0),
    ("CGGCCAAGGTCAGAGAGGTCAGTGAATGCCGAGT", 1),
    ("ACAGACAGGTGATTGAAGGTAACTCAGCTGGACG", 0),
]

----------
Test system: PPARg DBDmut:RXRa IVT, anti-PPARg (DBD mutation: PPARg1 K132A/R137A, NR concentration 270 nM, RXRa partner concentration 90 nM)
protocol: PBM binding z-score (relative to random genomic background probes); higher = stronger binding; sequences stand for … in GC…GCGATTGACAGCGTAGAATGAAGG
PBM binding z-score vs 0.8: at or above is yes (1), below is no (0).

# biopolymer sequence, class name
records = [
    ("TCCTATAGGTAAAAGGTGAAAGTCGGTGTGGTAA", "no (0)"),
    ("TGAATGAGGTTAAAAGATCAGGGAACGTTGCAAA", "no (0)"),
    ("TCTCGGAGGACACGAAGGTCAGAGCCTTCCAGAG", "no (0)"),
    ("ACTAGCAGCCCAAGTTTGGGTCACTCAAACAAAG", "no (0)"),
    ("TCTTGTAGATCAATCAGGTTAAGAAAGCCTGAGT", "yes (1)"),
    ("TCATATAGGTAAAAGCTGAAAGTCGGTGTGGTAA", "yes (1)"),
    ("TCTCGGAGAACACGAAGGTCAGAGCTTTCCAGAG", "no (0)"),
    ("CGTCCAAGGTCAGAGAGGTCAGTGCATGCCGAGT", "no (0)"),
    ("ATCGAAAGGTCGAGATGAGTATAGAGAAAGGGAA", "yes (1)"),
    ("CCAGACAGGTGAGAAGGTACCTCAGCCTCGATTA", "no (0)"),
    ("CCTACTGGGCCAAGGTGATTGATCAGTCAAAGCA", "no (0)"),
    ("TCTAGTTGTTCAAAGGTCACACACTCGAAATGCG", "yes (1)"),
    ("TCATATACGTAAAGGTGAAAGTCGAACGATATGA", "yes (1)"),
    ("TCGAGTAGGTAACCAATGGGGCATTCAGCTTTCT", "no (0)"),
    ("TCTTGTAGATCAATAGAGGTTAAGACAGTGCGCT", "no (0)"),
    ("TCTTGTAGATCAAGCAGGTCAAGAAAGCCTGAGT", "no (0)"),
    ("GATACAGGGCCAGCTAGAGGCCAGAGTATGGAAA", "no (0)"),
    ("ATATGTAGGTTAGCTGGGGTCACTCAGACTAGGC", "yes (1)"),
    ("CCGAGTAGGTTAGGGGGCATTCAGGCAACGGTGA", "yes (1)"),
    ("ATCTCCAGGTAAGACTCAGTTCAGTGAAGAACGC", "no (0)"),
    ("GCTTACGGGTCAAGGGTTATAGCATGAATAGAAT", "yes (1)"),
    ("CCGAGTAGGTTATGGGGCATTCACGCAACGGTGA", "no (0)"),
    ("CAAACTACGTCAAGAGGTCAAAGTCCGCTTCCCG", "yes (1)"),
    ("TCATACAGGTAAAGGTGAAAGTCGAACGATATGA", "yes (1)"),
    ("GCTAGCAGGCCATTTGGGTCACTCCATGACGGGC", "no (0)"),
]
